Readings of MIC for the listed compounds
Tested on: Staphylococcus aureus
assay-notes: Antibacterial activity against Staphylococcus aureus 011HT3
Type: functional

- compound-string: "C#CCONC(=O)O[C@H]1[C@@H](O)[C@H](Oc2ccc3c(=O)c(/C(C)=N/OC)c(O)oc3c2C)OC(C)(C)[C@@H]1OC"
  system-name: "Staphylococcus aureus"
  result: "0.15 µg/mL"
- compound-string: "CCOC(=O)c1c(O)oc2c(C)c(O[C@@H]3OC(C)(C)[C@H](OC)[C@@H](OC(=O)c4ccc(C)[nH]4)[C@H]3O)ccc2c1=O"
  system-name: "Staphylococcus aureus"
  result: "0.3 µg/mL"
- compound-string: "C#CCONC(=O)O[C@H]1[C@@H](O)[C@H](Oc2ccc3c(O)c(C(=O)NOCC=C(C)C)c(=O)oc3c2C)OC(C)(C)[C@@H]1OC"
  system-name: "Staphylococcus aureus"
  result: "< 0.04 µg/mL"

Consider the compound shown here: `CCOC(=O)c1c(O)oc2c(C)c(O[C@@H]3OC(C)(C)[C@H](OC)[C@@H](OC(=O)NOC(C)C)[C@H]3O)ccc2c1=O` What is its recorded MIC?
> 40 µg/mL
